System: K562
TEST_NAME: Induction of apoptosis in human K562 cells assessed as total cells at early apoptotic stage at antiproliferative IC50 after 72 hrs by Annexin-V-FITC/propidium iodide staining based flow cytometry relative to control (reference value: 0.36 to 0.37%)
Type: functional
TEST_READOUT: Activity
Kindly report the value followed by its unit.

Completed entries (count: 5):
O=C1C[C@H]2O[C@H](CBr)[C@H](O)[C@H]2O1
0.6%
O=C1C[C@H]2O[C@H]([C@H](I)c3ccccc3)[C@H](O)[C@H]2O1
1.11%
O=C1C[C@H]2O[C@H]([C@H](O)c3ccccc3)[C@H](O)[C@H]2O1
0.99%
O=C1C[C@H]2O[C@H]([C@H](Cl)c3ccccc3)[C@H](O)[C@H]2O1
10.66%
[N-]=[N+]=NC[C@H]1O[C@@H]2CC(=O)O[C@@H]2[C@H]1O
1.22%

// input: 2 molecules below; output: Activity for each
1. O=C1C[C@H]2O[C@H]([C@@H](Br)c3ccccc3)[C@H](O)[C@H]2O1
2. O=C1C[C@H]2O[C@H]([C@@H](F)c3ccccc3)[C@H](O)[C@H]2O1

Marked response:
1: 0.86%; 2: 3.03%

###

Tested on: K562
TEST_NAME: Induction of apoptosis in human K562 cells assessed as gated cells at early apoptotic stage at antiproliferative IC50 after 72 hrs by Annexin-V-FITC/propidium iodide staining based flow cytometry relative to control (reference value: 0.46 to 0.67%)
Assay type: functional
TEST_READOUT: Activity (%)
Give bare numbers, in %.

[N-]=[N+]=NC[C@H]1O[C@@H]2CC(=O)O[C@@H]2[C@H]1O
14.06
O=C1C[C@H]2O[C@H](CBr)[C@H](O)[C@H]2O1
11.99
O=C1C[C@H]2O[C@H]([C@@H](I)c3ccccc3)[C@H](O)[C@H]2O1
4.96

Exam item: Could you please provide reported Activity for O=C1C[C@H]2O[C@H]([C@@H](F)c3ccccc3)[C@H](O)[C@H]2O1 ? Thanks!
Marked response: 4.1

###

Could you please report measured Activity for the items listed next?
System: K562
TEST_NAME: Cell cycle arrest in human K562 cells assessed as accumulation at S phase at antiproliferative IC50 after 72 hrs by propidium iodide staining based flow cytometry (reference value: 22.92 to 40.15%)
Assay type: functional
Numbers only, in %.

// input: 6 compounds below; output: Activity for each
1. O=C1C[C@H]2O[C@H]([C@H](I)c3ccccc3)[C@H](O)[C@H]2O1
2. O=C1C[C@H]2O[C@H]([C@H](O)c3ccccc3)[C@H](O)[C@H]2O1
3. [N-]=[N+]=N[C@@H](c1ccccc1)[C@H]1O[C@@H]2CC(=O)O[C@@H]2[C@H]1O
4. O=C1C[C@H]2O[C@H]([C@@H](O)c3ccccc3)[C@H](O)[C@H]2O1
5. O=C1C[C@H]2O[C@H]([C@H](Cl)c3ccccc3)[C@H](O)[C@H]2O1
6. O=C1C[C@H]2O[C@H]([C@@H](F)c3ccccc3)[C@H](O)[C@H]2O1

Marked response:
1. 48.01
2. 43.35
3. 42.82
4. 39.56
5. 41.11
6. 51.98

###

Test system: K562
TEST_NAME: Induction of apoptosis in human K562 cells assessed as total cells at late apoptotic stage at antiproliferative IC50 after 72 hrs by Annexin-V-FITC/propidium iodide staining based flow cytometry relative to control (reference value: 1.32 to 1.42%)
Assay type: functional
Where Activity equals or exceeds 2%, the correct label is 1 (yes); where it does not, the label is 0 (no).

Answered cases to consult:
[N-]=[N+]=NC[C@H]1O[C@@H]2CC(=O)O[C@@H]2[C@H]1O
1 (yes)
O=C1C[C@H]2O[C@H]([C@@H](Br)c3ccccc3)[C@H](O)[C@H]2O1
0 (no)
O=C1C[C@H]2O[C@H]([C@H](O)c3ccccc3)[C@H](O)[C@H]2O1
0 (no)

Turning now to a further record.
Exam item: Please tell me: is the compound [N-]=[N+]=N[C@@H](c1ccccc1)[C@H]1O[C@@H]2CC(=O)O[C@@H]2[C@H]1O at or over 2% in terms of Activity?
Marked response: 0 (no)
